Origin of measurements: the supplement of paper PMC10307832

Kindly supply the reported relative viability values for the records listed here.
System: NCI-H647
experimental_protocol: relative viability (nuclei count vs DMSO), 5 days (fraction); higher = more cells survive
assay_context: first compound 2.53 µM
Reply: number alone, nothing else.

(Q) Lab request: please report relative viability under test system NCI-H647 for C=C1C(=O)O[C@@H](CCCCCCCC)[C@@H]1C(=O)O [C-75] + Cc1cc(Nc2cc(N3CCN(C)CC3)nc(Sc3ccc(NC(=O)C4CC4)cc3)n2)n[nH]1 [Tozasertib] (partner 0.1 µM)
(A) 0.457

(Q) Another compound to check: C=C1C(=O)O[C@@H](CCCCCCCC)[C@@H]1C(=O)O [C-75] + NC(=O)Nc1cc(-c2cccc(F)c2)sc1C(=O)N[C@H]1CCCNC1 [AZD7762] (partner 0.2 µM)
(A) 0.444

(Q) Try this compound next: C=C1C(=O)O[C@@H](CCCCCCCC)[C@@H]1C(=O)O [C-75] + CC(C)C[C@H](NC(=O)[C@H](Cc1ccccc1)NC(=O)c1cnccn1)B(O)O [Bortezomib] (partner 0.002 µM)
(A) 0.869

(Q) Follow-up entry: C=C1C(=O)O[C@@H](CCCCCCCC)[C@@H]1C(=O)O [C-75] + CS(=O)(=O)CCNCc1ccc(-c2ccc3ncnc(Nc4ccc(OCc5cccc(F)c5)c(Cl)c4)c3c2)o1 [Lapatinib] (partner 2 µM)
(A) 0.791

(Q) Can you handle Oc1nc(-c2ccc(C(F)(F)F)cc2)nc2c1CSCC2 [XAV939] + O=C(c1cc(Cc2n[nH]c(=O)c3ccccc23)ccc1F)N1CCN(C(=O)C2CC2)CC1 [Olaparib] (partner 8 µM) next?
(A) 0.439

(Q) Moving on to C=C1C(=O)O[C@@H](CCCCCCCC)[C@@H]1C(=O)O [C-75] + CS(=O)(=O)N1CCN(Cc2cc3nc(-c4cccc5[nH]ncc45)nc(N4CCOCC4)c3s2)CC1 [Pictilisib] (partner 1 µM)
(A) 0.396

(Q) Again, but for Oc1nc(-c2ccc(C(F)(F)F)cc2)nc2c1CSCC2 [XAV939] + Nc1ncn([C@H]2C[C@H](O)[C@@H](CO)O2)c(=O)n1 [Decitabine] (partner 2 µM)
(A) 0.279

(Q) Next entry: Oc1nc(-c2ccc(C(F)(F)F)cc2)nc2c1CSCC2 [XAV939] + NC(=O)Nc1cc(-c2cccc(F)c2)sc1C(=O)N[C@H]1CCCNC1 [AZD7762] (partner 0.2 µM)
(A) 0.412

(Q) Proceed to Oc1nc(-c2ccc(C(F)(F)F)cc2)nc2c1CSCC2 [XAV939] + O=C(CCCCCCC(=O)Nc1ccccc1)NO [Vorinostat] (partner 1 µM)
(A) 0.207

(Q) What about this compound? C=C1C(=O)O[C@@H](CCCCCCCC)[C@@H]1C(=O)O [C-75] + COc1cccc2cc(-c3nc([C@H]4CC[C@H](C(=O)O)CC4)n4ncnc(N)c34)[nH]c12 [OSI-027] (partner 0.5 µM)
(A) 0.474

(Q) Another: Oc1nc(-c2ccc(C(F)(F)F)cc2)nc2c1CSCC2 [XAV939] + CC(=O)Nc1cccc(-n2c(=O)n(C3CC3)c(=O)c3c(Nc4ccc(I)cc4F)n(C)c(=O)c(C)c32)c1 [Trametinib] (partner 0.02 µM)
(A) 0.372

(Q) Likewise for C=C1C(=O)O[C@@H](CCCCCCCC)[C@@H]1C(=O)O [C-75] + O=C(c1cc(Cc2n[nH]c(=O)c3ccccc23)ccc1F)N1CCN(C(=O)C2CC2)CC1 [Olaparib] (partner 8 µM) ?
(A) 0.495
